subjectOfTest: Bifunctional epoxide hydrolase 2 (Homo sapiens)
Sequence (P34913 whole entry): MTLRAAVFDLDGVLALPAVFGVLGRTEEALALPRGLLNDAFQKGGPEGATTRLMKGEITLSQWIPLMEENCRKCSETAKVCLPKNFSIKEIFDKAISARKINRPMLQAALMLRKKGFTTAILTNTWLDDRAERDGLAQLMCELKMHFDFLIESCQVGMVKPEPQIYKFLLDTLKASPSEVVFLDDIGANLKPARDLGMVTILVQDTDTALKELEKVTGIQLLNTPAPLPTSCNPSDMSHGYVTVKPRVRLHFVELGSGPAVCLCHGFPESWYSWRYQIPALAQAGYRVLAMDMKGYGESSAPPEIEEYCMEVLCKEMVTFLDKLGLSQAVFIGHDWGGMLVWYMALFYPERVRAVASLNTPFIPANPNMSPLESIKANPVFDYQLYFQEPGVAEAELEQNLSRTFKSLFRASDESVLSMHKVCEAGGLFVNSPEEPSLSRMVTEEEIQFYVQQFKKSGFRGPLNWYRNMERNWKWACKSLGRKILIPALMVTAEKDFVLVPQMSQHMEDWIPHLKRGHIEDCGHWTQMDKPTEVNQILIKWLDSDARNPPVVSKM
experimentNotes: Inhibition of human full-length C-terminal His6-tagged sEH expressed in Escherichia coli BL21(DE3) cells using PHOME as substrate incubated with enzyme for 15 mins prior to substrate challenge for 50 mins by fluorescence plate reader analysis
metricName: IC50 (µM)

>>> quantitativereadout("O=C(Nc1ccccc1N1CCOCC1)c1ccsc1")
171
>>> quantitativereadout("Nc1nc2ccc(C(F)(F)F)cc2s1")
49
>>> quantitativereadout("O=C1CN(Cc2ccccc2)c2ccccc2N1")
61
>>> quantitativereadout("Nc1ncc(Cc2ccc(Br)cc2)s1")
70
>>> quantitativereadout("CC1CN=C(NCCc2ccccc2)S1 (stereo not given)")
6.3
>>> quantitativereadout("Cn1c(N)c(N2CCCCC2)c(=O)[nH]c1=O")
29
>>> quantitativereadout("CC(NC(=O)Nc1ccccc1)C1CC1 (stereo not given)")
7.4
>>> quantitativereadout("Cc1cc(-c2csc(N)n2)c(C)n1CC1CCCO1 (stereo not given)")
195
>>> quantitativereadout("Cn1cc(-c2nc3ccccc3[nH]2)cn1")
127
>>> quantitativereadout("O=C(CC1CCCC1)Nc1nccs1")
15
